Reference for the values: ChEMBL document CHEMBL5058577

- Test system: U2OS
- Experiment Description: Multiplex assay against U2OS
- Type: toxicity, cell-based
- Protocol Conditions: human, 24 h, 10 µM, compound concentration 10 uM, replicate 2
As shown below, each of these compounds has a reported Population Pyknosed Nuclei (%) value.
# unit: % | format: bare number

Value lookup for Population Pyknosed Nuclei (%); key = C=CCN1C[C@H](C(=O)N(CCCN(C)C)C(=O)NCC)C[C@@H]2c3cccc4[nH]cc(c34)C[C@H]21 [CABERGOLINE]
10

---

- System: HEK-293T
- Experiment Description: Multiplex assay against HEK293T
- Type: toxicity, cell-based
- Protocol Conditions: human, 12 h, 1 µM, compound concentration 1 uM, replicate 2
Measure Name: Population Pyknosed Nuclei (%)
Reply with the number, then its unit.

Use these answered entries as a reference point.
Compound	Population Pyknosed Nuclei (%)
CN1CCN(c2ccc(Nc3c4ccccc4nc4ccccc34)cc2)CC1.Cl.Cl.O	5%
Cc1cc(=O)n(C)c2cc(N3C(=O)CC[C@H](NS(=O)(=O)CC(C)C)[C@H]3c3ccc(Cl)cc3)ccc12	14%
O=c1ccc2ccc(OCCCCN3CCN(c4cccc5sccc45)CC3)cc2[nH]1	14%
Nc1nc(-c2ccco2)c2cnn(Cc3ccccc3F)c2n1	13%
C=CCN1C[C@H](C(=O)N(CCCN(C)C)C(=O)NCC)C[C@@H]2c3cccc4[nH]cc(c34)C[C@H]21	14%
CC(C)C[C@H](CO)Nc1nc(S[C@@H](C)c2ccccc2)nc2nc(N)sc12	18%
CC(C)(O)C(=O)N1CCN(c2ccc(C(F)(F)F)c(C3=C(c4c[nH]c5ccccc45)C(=O)NC3=O)c2)CC1	17%
O=C(Nc1cc(-c2ccccc2)nn1-c1ccccc1F)c1ccc([N+](=O)[O-])cc1	9%

# query: Population Pyknosed Nuclei (%) | item Cl.Cl.OCCOCCN1CCN(C(c2ccccc2)c2ccc(Cl)cc2)CC1 (configuration not stated) [HYDROXYZINE HYDROCHLORIDE] | system: HEK-293T
9%

Next record, please: CCC(=O)OCC(=O)[C@@]1(OC(=O)CC)[C@@H](C)C[C@H]2[C@@H]3CCC4=CC(=O)C=C[C@]4(C)[C@@]3(Cl)[C@@H](O)C[C@@]21C [BECLOMETHASONE DIPROPIONATE]
19%

---

- Test system: U2OS
- Experiment Description: Multiplex assay against U2OS
- Format: toxicity, cell-based
- Protocol Conditions: human, 24 h, 10 µM, compound concentration 10 uM, replicate 1
Measure Name: Population Hoechst High Intensity Objects (%)
# unit: % | format: bare number

Use these answered entries as a reference point.
Compound	Reported
C[C@H](NC(=O)CNC(=O)c1cccc(Cl)c1)c1ccccc1	1
CC(C)(C)c1ccc(CSc2cnn(C(C)(C)C)c(=O)c2Cl)cc1	2
CCC(=O)OCC(=O)[C@@]1(OC(=O)CC)[C@@H](C)C[C@H]2[C@@H]3CCC4=CC(=O)C=C[C@]4(C)[C@@]3(Cl)[C@@H](O)C[C@@]21C [BECLOMETHASONE DIPROPIONATE]	3

# query: Population Hoechst High Intensity Objects (%) | item `CSc1nc(NC2CCCC2)c([N+](=O)[O-])c(NC2CCCC2)n1` | system: U2OS
2

---

- System: HEK-293T
- Experiment Description: Multiplex assay against HEK293T
- Type: toxicity, cell-based
- Protocol Conditions: human, 12 h, 1 µM, compound concentration 1 uM, replicate 2
Measure Name: Population Apoptotic (%)
# unit: % | format: bare number

Use these answered entries as a reference point.
Molecule	Target Under Test	Measure Name	Reported
CSc1nc(NC2CCCC2)c([N+](=O)[O-])c(NC2CCCC2)n1 [GS-39783]	HEK-293T	Population Apoptotic (%)	40
Nc1nc(-c2ccco2)c2cnn(Cc3ccccc3F)c2n1	HEK-293T	Population Apoptotic (%)	36
COc1cc(C(=O)N2CC[C@@H](O)[C@@H](N)C2)cc2nc(-c3cc4ccccc4n3CC3CC3)n(C)c12.Cl	HEK-293T	Population Apoptotic (%)	70
CCn1c(-c2nc3cc(C(=O)N4CCCC(N)C4)ccc3n2C)cc2ccccc21.Cl (centres undefined)	HEK-293T	Population Apoptotic (%)	47
COc1cc2nc(N3CCN(C(=O)c4ccco4)CC3)nc(N)c2cc1OC.Cl [PRAZOSIN HYDROCHLORIDE]	HEK-293T	Population Apoptotic (%)	56

Value lookup for Population Apoptotic (%); key = Nc1nc(CC(=O)Nc2ccc(CCNC[C@H](O)c3ccccc3)cc2)cs1 [MIRABEGRON]
55

Next record, please: COc1ccc2[nH]c(I)c(CCNC(C)=O)c2c1 [IODOMELATONIN]
59

Next record, please: `Cc1sc2c(c1C)C(c1ccc(Cl)cc1)=N[C@H](CC(=O)OC(C)(C)C)c1nnc(C)n1-2`
44

Next record, please: O=c1ccc2ccc(OCCCCN3CCN(c4cccc5sccc45)CC3)cc2[nH]1 [BREXPIPRAZOLE]
42
